Parameter IC50: see the listing below.
protocol-notes: Antiplatelet activity against rabbit platelet assessed as inhibition of platelet-activating factor-induced platelet aggregation preincubated for 3 mins by turbidimetric method
Format: functional, cell-based
condition: Oryctolagus cuniculus
Your answer is read as µM, so omit the unit and give the number.

These solved cases illustrate the format of a correct answer.
- compound: "CCCCCCCCCCCCCCCCCCNC(=O)OCC(COP(=O)([O-])OCC[n+]1ccsc1)OC (stereo not drawn)"
  unit-annotation: "µM"
  IC50: 1.1
- compound: "CC(C)=CCc1cc(-c2coc3cc(O)ccc3c2=O)ccc1O"
  unit-annotation: "µM"
  IC50: 2.5

Please find the next compound below.
Quick note, IC50 for CC(C)=CCc1c(O)ccc(C(=O)/C=C/c2ccc(O)cc2)c1O landed at 41.6

Source of measurements: ChEMBL document CHEMBL1158225
